molecular target: FIH (Homo sapiens, UniProt Q9NWT6)
Sequence (Q9NWT6 whole entry): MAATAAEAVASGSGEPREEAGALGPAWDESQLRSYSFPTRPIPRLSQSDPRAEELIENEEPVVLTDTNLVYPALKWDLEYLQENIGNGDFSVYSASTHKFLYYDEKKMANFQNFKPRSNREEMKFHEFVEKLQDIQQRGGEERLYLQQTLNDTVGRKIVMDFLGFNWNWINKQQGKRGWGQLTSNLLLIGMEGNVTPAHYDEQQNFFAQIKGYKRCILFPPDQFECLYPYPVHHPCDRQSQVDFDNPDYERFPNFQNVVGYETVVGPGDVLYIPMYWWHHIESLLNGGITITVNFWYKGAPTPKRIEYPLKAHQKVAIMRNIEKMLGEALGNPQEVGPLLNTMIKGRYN
RECORDED_METRIC: pIC50
// field semantics: pIC50 = negative decimal log of concentration (mol/L)

Field pIC50 (entry O=C(O)CNC(=O)C(=O)O ) reads 5.64

###

system: U2OS; experiment: Quantitative HIF1α MSD immunoassay, U2OS; format: cell-based; settings: Homo sapiens, 5 h treatment, MSD assay, read-out: HIF1α EC50
RECORDED_METRIC: pEC50
// field semantics: pEC50 = negative decimal log of concentration (mol/L)

Field pEC50 (entry O=C(O)CNC(=O)c1c(O)c2ccccc2n(Cc2ccccc2)c1=O ) reads 4.31
